These measurements were taken from patent US20240190880A1.

target under test: ER (Homo sapiens, UniProt P03372)
Construct: host or cells: T47D and MCF7 human breast cancer cells
assay name: ER degradation activity, in-cell western blot analysis in T47D cells
Assay type: cell-based
measurement parameters: 16 hours, Table A does not say which cell line (T47D or MCF7), read-out: Potency (DC50)
observable: DC50

Reference set, count: 5
molecule	observable	result value
O=C1CCC(N2C(=O)c3cc4c(cc3C2=O)CN(CC2CCN(CC3CN(c5ccc([C@@H]6c7ccc(O)cc7CC[C@@H]6c6ccc(F)cc6)cc5)C3)CC2)C4)C(=O)N1 (stereo partly drawn)	DC50	> 0.1 µM
C[C@@H]1Cc2c([nH]c3ccccc23)[C@@H](c2c(F)cc(N3CCC(C(=O)N4CCC(N5Cc6cc7c(cc6C5)C(=O)N(C5CCC(=O)NC5=O)C7=O)CC4)CC3)cc2F)N1CC(C)(F)F (stereo partly drawn)	DC50	< 0.01 µM
C[C@@H]1Cc2c([nH]c3ccccc23)[C@@H](c2c(F)cc(N3CC4(CCCN(CC(=O)N5Cc6cc7c(cc6C5)C(=O)N(C5CCC(=O)NC5=O)C7)C4)C3)cc2F)N1CC(F)F (stereo partly drawn)	DC50	0.01 to 0.1 µM
C[C@@H]1Cc2c([nH]c3ccccc23)[C@@H](c2c(F)cc(N3CCCC(CN4CCC(C(=O)N5Cc6cc7c(cc6C5)C(=O)N(C5CCC(=O)NC5=O)C7)CC4)C3)cc2F)N1CC(F)F (stereo partly drawn)	DC50	< 0.01 µM
C[C@@H]1Cc2c([nH]c3ccccc23)[C@@H](c2ccc(C3=CCC(C(=O)N4CCC(N5Cc6cc7c(cc6C5)C(=O)N(C5CCC(=O)NC5=O)C7=O)CC4)CC3)nc2)N1CC(F)F (stereo partly drawn)	DC50	> 0.1 µM

Record lookup: for ER (Homo sapiens, UniProt P03372), what DC50 belongs to O=C1CCC(N2C(=O)c3cc4c(cc3C2=O)CN(CC(=O)N2CCC3(CC2)CCN(c2ccc(C(=C(CCCl)c5ccccc5)c5ccc(O)cc5)cc2)CC3)C4)C(=O)N1 (stereo not drawn) ?
< 0.01 µM

Try the molecule C[C@@H]1Cc2c([nH]c3ccccc23)[C@@H](c2c(F)cc(N3CCC(CN4CC(N5Cc6cc7c(cc6C5)C(=O)N(C5CCC(=O)NC5=O)C7)C4)CC3)cc2F)N1CC(F)F (stereo partly drawn)
< 0.01 µM

Do the same for C[C@@H]1Cc2c([nH]c3ccccc23)[C@@H](c2c(F)cc(C3CCC(C(=O)N4CC(CN5Cc6cc7c(cc6C5)C(=O)N(C5CCC(=O)NC5=O)C7=O)C4)CC3)cc2F)N1CC(F)F (stereo partly drawn) please
< 0.01 µM

Lookup C[C@@H]1Cc2cc(O)ccc2[C@@H](c2ccc(N3CCC(C(=O)N4CCC(N5Cc6cc7c(cc6C5)C(=O)N(C5CCC(=O)NC5=O)C7=O)CC4)CC3)cc2)N1CC(F)F (stereo partly drawn)
< 0.01 µM
